Biological target: P2X7 (Homo sapiens (Human), UniProt Q99572)
Sequence (Q99572 whole entry): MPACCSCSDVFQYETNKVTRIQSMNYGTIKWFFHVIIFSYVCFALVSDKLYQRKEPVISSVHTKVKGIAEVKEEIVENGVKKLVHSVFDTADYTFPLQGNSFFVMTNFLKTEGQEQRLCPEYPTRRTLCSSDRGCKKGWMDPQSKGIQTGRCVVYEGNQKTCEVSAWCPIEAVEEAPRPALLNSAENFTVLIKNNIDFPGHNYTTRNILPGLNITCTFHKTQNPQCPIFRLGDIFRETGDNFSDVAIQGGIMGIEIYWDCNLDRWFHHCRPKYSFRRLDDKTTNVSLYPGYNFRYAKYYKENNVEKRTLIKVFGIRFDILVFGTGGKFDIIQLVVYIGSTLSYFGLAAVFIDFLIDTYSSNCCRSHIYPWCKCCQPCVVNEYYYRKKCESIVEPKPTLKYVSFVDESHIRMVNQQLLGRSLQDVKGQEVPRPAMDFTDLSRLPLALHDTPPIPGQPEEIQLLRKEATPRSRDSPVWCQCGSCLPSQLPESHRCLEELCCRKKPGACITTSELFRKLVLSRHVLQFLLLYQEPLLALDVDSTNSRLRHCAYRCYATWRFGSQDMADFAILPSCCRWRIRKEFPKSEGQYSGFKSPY
Assay: P2X7 antagonism in human whole blood (LPS + Bz-ATP induced IL-1β release, ELISA)
Format: cell-based
Conditions: LPS 30 ng/ml, Bz-ATP 1 mM
measured.property: IC50 (nM)

- compound.smiles: "O=C(c1cccc(Cl)c1Cl)N1CCc2c(nnn2-c2ncccn2)C1"
  val: 158
- compound.smiles: "O=C(c1cccc(Cl)c1Cl)N1CCc2c(nnn2-c2cnccn2)C1"
  val: 501
- compound.smiles: "O=C(c1cccc(C(F)(F)F)c1Cl)N1CCc2c(nnn2-c2cc(F)ccn2)C1"
  val: 316
- compound.smiles: "O=C(c1ccc(F)c(Cl)c1Cl)N1CCc2c(nnn2-c2ccccn2)C1"
  val: 501
- compound.smiles: "O=C(c1cccc(C(F)(F)F)c1F)N1CCc2c(nnn2-c2ncccn2)C1"
  val: 363

----------
Molecular target: UniProtKB Q99572
Assay: Radioligand binding, tritiated A-804598, human P2X7-1321N1 cell membranes;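 note: ki obtained from the binding IC50 after correction for tracer concentration and tracer affinity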
Settings: 1 hour at 4° C.
measured.property: Ki (nM)

- compound: "CC1Cc2c(nnn2-c2ccccn2)CN1C(=O)c1ccc(F)c(Cl)c1Cl (centres unmarked) [Example 121]"
  unit.info: "nM"
  val: 11.2
- compound: "O=C(c1ccc(F)c(Cl)c1Cl)N1CCc2c(nnn2-c2ccccn2)C1 [Example 130]"
  unit.info: "nM"
  val: 50.1
- compound: "Cn1nc(-c2cccnc2)c2c1CN(C(=O)c1cccc(C(F)(F)F)c1Cl)CC2 [Example 108]"
  unit.info: "nM"
  val: 100
- compound: "O=C(c1cccc(C(F)(F)F)c1Cl)N1CCc2c(ncn2-c2ccccc2)C1 [Example 2]"
  unit.info: "nM"
  val: 87.1
- compound: "O=C(c1cccc(C(F)(F)F)c1Cl)N1CCc2c(nnn2-c2ccccc2OCCF)C1 [Example 126]"
  unit.info: "nM"
  val: 93.3
- compound: "Cc1c(C(=O)N2CCc3c(ncn3-c3ccc(F)cn3)C2)cccc1C(F)(F)F [Example 312]"
  unit.info: "nM"
  val: 39.8
- compound: "C[C@H]1Cc2c(nnn2-c2cc(F)ccn2)CN1C(=O)c1cccc(C(F)(F)F)c1Cl (single isomer, unassigned) [Example 199]"
  unit.info: "nM"
  val: 39.8
- compound: "O=C(c1cccc(C(F)(F)F)c1Cl)N1CCc2c(-c3cncc(F)c3)n[nH]c2C1 [Example 95]"
  unit.info: "nM"
  val: 316

----------
Items are presented alongside their recorded pIC50.
Molecular target: P2X7 (Homo sapiens (Human))
Assay: Ca2+ flux (FLIPR) in 1321N1 cells expressing recombinant human P2X7 channel;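 note: Calcium-4 dye-loaded cells exposed to compound for 30 min before agonist addition, fluorescence change read 180 s after agonist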
Assay type: cell-based
Conditions: 250 μM BzATP
pIC50: −log10 of the molar value.
measured.property: pIC50

- molecule: "O=C(C1c2ncn(-c3ccccn3)c2CCN1C(=O)c1cccc(C(F)(F)F)c1Cl)N1CCC1 (stereo not drawn)"
  assay.target: "P2X7 (Homo sapiens (Human))"
  measured.property: "pIC50"
  readout.qualifier: "="
  val: 6.50
- molecule: "C[C@H]1Cc2c(nnn2-c2ncc(F)cn2)CN1C(=O)c1cc(F)cc(C(F)(F)F)c1"
  assay.target: "P2X7 (Homo sapiens (Human))"
  measured.property: "pIC50"
  readout.qualifier: "<"
  val: 5.00
- molecule: "CCOC(=O)C1c2ncn(-c3ccccn3)c2CCN1C(=O)c1cccc(C(F)(F)F)c1Cl (stereo not drawn)"
  assay.target: "P2X7 (Homo sapiens (Human))"
  measured.property: "pIC50"
  readout.qualifier: "="
  val: 7.46

Recorded values, source patent US9464084B2.
